- target_desc: recombinant rat PIM-3 (Rattus norvegicus)
- protocol_summary: PIM-3 Assay (as Example A)
- measurement_setup: averaged IC50; 30 μM ATP, 3.75 μM PIM2tide, 0.5 nM PIM-3
pIC50: −log10 of the molar value. Where a name gives a salt, the structure may show the parent alone.
measured_metric: pIC50

Solved cases below.
CC(C)(C)C(=O)Nc1ccc2ccc(-c3nnc4ccc([C@@H](N5CC[C@H](N)C5)C(F)(F)F)cn34)nc2c1	9.52
COC[C@@H](C)Oc1cc(F)cc2ccc(-c3nnc4ccc([C@H](N5CC[C@](C)(N)C5)C(F)(F)F)cn34)nc12 [Example 221, dihydrochloride]	9.00
COc1cc(F)cc2ccc(-c3nnc4ccc([C@@H](N5CC[C@@](C)(N)C5)C(F)(F)F)cn34)nc12 [Example 241, dihydrochloride]	7.77

a: N[C@H]1CCN([C@@H](c2ccc3nnc(-c4ccc5ccc(C6CC6)cc5n4)n3c2)C(F)(F)F)C1 (single isomer, unassigned)
b: COCCOc1ccc2ccc(-c3nnc4ccc([C@@H](N5CC[C@](C)(N)C5)C(F)(F)F)cn34)nc2c1 [Example 261, dihydrochloride]
Could you point out whether the larger pIC50 belongs to a or to b ? // output: label of the selected item
a
(a: 8.96, b: 8.48)

* * *

- target_desc: PIM-1 (Homo sapiens)
- Sequence (P11309 whole entry, species assumed): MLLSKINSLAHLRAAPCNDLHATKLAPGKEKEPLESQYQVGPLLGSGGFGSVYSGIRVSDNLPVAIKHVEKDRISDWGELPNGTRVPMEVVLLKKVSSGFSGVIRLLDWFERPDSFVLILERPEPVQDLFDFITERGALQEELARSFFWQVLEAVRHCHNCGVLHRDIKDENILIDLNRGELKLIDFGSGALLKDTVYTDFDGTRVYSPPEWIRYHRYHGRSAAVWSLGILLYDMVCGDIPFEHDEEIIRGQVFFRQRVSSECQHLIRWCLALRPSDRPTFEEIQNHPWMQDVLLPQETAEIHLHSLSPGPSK
Where a name gives a salt, the structure may show the parent alone.
measured_metric: IC50 (nM)

P: CC(C)(C)NC(=O)c1ccc2ccc(-c3nnc4ccc([C@@H](N5CC[C@H](N)C5)C(F)(F)F)cn34)nc2c1 [Example 46, dihydrochloride]
Q: Cn1cc(-c2ccc3ccc(-c4nnc5ccc([C@@H](N6CC[C@H](N)C6)C(F)(F)F)cn45)nc3c2F)cn1 [Example 171, tri-hydrochloride]
R: COC[C@@H](C)Oc1cccc2ccc(-c3nnc4ccc([C@@H](N5CC[C@H](N)C5)C(F)(F)F)cn34)nc12 [Example 140, dihydrochloride]
S: CC(C)Oc1cccc2ccc(-c3nnc4ccc([C@@H](N5C[C@@H](O)[C@H](O)C5)C(F)(F)F)cn34)nc12
Method: rank(items above, key=IC50, ascending=True) Answer by naming the labels in the order asked.
P, R, S, Q

I: Cc1cccc2ccc(-c3nnc4ccc([C@@H](N5CC[C@H](N)C5)C(F)(F)F)cn34)nc12 [Example 183, dihydrochloride]
II: CC1(COc2cccc3ccc(-c4nnc5ccc([C@@H](N6CC[C@H](N)C6)C(F)(F)F)cn45)nc23)COC1
Could you point out whether the larger IC50 belongs to I or to II ? // output: label of the selected item
I

* * *

- target_desc: PIM-1 (Homo sapiens)
- protocol_summary: Enzyme PIM-1 Assay ([33P]ATP incorporation into PIM2tide, filter plate)
- Format: biochemical
- measurement_setup: averaged IC50; 35 μM ATP, 7.5 μM PIM2tide, 0.25 nM PIM-1, 60 min at 22° C.
pIC50: −log10 of the molar value. Structures can show the parent of a compound that is named as a salt.
measured_metric: pIC50

N[C@H]1CCN([C@H](c2ccc3nnc(-c4ccc5cccc(C6CC6)c5n4)n3c2)C(F)(F)F)C1 [Example 39, dihydrochloride]	10.10
CCOc1cc2nc(-c3nnc4ccc([C@H](C)N5CC[C@H](N)C5)cn34)ccc2cc1F [Example 310, trihydrochloride]	9.34
CCSc1cccc2ccc(-c3nnc4ccc([C@@H](N5CC[C@H](N)C5)C(F)(F)F)cn34)nc12 [Example 273, hydrochloride]	7.59
CC(C)(O)COc1ccc2ccc(-c3nnc4ccc([C@@H](N5CC[C@H](N)C5)C(F)(F)F)cn34)nc2c1 [Example 278, dihydrochloride]	9.64
N[C@H]1CCN([C@H](c2ccc3nnc(-c4ccc5cc(F)cc(OCC(F)(F)F)c5n4)n3c2)C(F)(F)F)C1 [Example 232, dihydrochloride]	9.70

a: CC(C)Oc1cc(F)cc2ccc(-c3nnc4ccc([C@H](N5CCC(C)(O)C5)C(F)(F)F)cn34)nc12 (single isomer, unassigned; diastereomer 2) [Example 203, hydrochloride]
b: CO[C@@H](C)COc1cc2nc(-c3nnc4ccc([C@@H](N5CC[C@H](N)C5)C(F)(F)F)cn34)ccc2cc1F [Example 323, di-hydrochloride]
Compare reported pIC50 values for a and b . Which is lower? // output: label of the selected item
a

a: COCC(C)Oc1cccc2ccc(-c3nnc4ccc([C@@H](N5CC[C@H](N)C5)C(F)(F)F)cn34)nc12 (stereo partly drawn) [Example 118, hydrochloride]
b: CC1(O)CCN([C@H](c2ccc3nnc(-c4ccc5cccc(C(C)(C)C)c5n4)n3c2)C(F)(F)F)C1 (single isomer, unassigned; diastereomer 1) [Example 195, hydrochloride]
c: CC(C)Oc1ccc2ccc(-c3nnc4ccc([C@@H](N5CC[C@H](N)C5)C(F)(F)F)cn34)nc2c1C1CC1 [Example 151, dihydrochloride]
Number of molecules to sort: 3. Sort criterion: pIC50, ascending. Answer by naming the labels in the order asked.
b, c, a

I: CC(C)Oc1cccc2ccc(-c3nnc4ccc([C@@H](N5CCC(N)(CO)C5)C(F)(F)F)cn34)nc12 (stereo partly drawn) [Example 197, dihydrochloride]
II: Cn1cc(-c2cc3nc(-c4nnc5ccc([C@@H](N6CC[C@H](N)C6)C(F)(F)F)cn45)ccc3cc2F)cn1 [Example 173, tri-hydrochloride]
Could you point out whether the larger pIC50 belongs to I or to II ? // output: label of the selected item
II

1: CC(C)Oc1cc(F)cc2ccc(-c3nnc4ccc([C@H](N5CC[C@H](N)C5)C(F)(F)F)cn34)nc12 [Example 135, hydrochloride]
2: COc1cccc2ccc(-c3nnc4ccc([C@@H](N5CCC(C)(O)C5)C(F)(F)F)cn34)nc12 (single isomer, unassigned; diastereomer 1) [Example 193, hydrochloride]
Compare reported pIC50 values for 1 and 2 . Which is lower? // output: label of the selected item
2

* * *

- target_desc: GST-tagged recombinant full-length human Pim-2 (Homo sapiens, UniProt Q9P1W9)
- Construct: GST-tagged recombinant full-length human Pim-2; GST
- Sequence (Q9P1W9 whole entry): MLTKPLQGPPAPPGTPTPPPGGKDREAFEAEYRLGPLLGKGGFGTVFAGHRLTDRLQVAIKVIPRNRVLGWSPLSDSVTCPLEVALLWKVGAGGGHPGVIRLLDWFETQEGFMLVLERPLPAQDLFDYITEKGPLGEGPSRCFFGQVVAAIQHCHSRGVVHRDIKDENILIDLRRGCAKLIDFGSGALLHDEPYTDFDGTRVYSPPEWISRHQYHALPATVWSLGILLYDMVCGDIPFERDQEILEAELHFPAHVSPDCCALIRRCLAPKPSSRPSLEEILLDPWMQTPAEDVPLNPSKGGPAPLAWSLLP
- protocol_summary: PIM-2 Assay (as Example A)
- measurement_setup: averaged IC50; 4 μM ATP, 1.0 μM PIM2tide, 1.5 nM Pim-2
pIC50: −log10 of the molar value. Structures can show the parent of a compound that is named as a salt.
measured_metric: pIC50

Solved cases below.
N[C@H]1CCN([C@H](c2ccc3nnc(-c4ccc5ccc(C6COC6)cc5n4)n3c2)C(F)(F)F)C1	6.12
CCNC(=O)c1ccc2ccc(-c3nnc4ccc([C@@H](N5CC[C@H](N)C5)C(F)(F)F)cn34)nc2c1 [Example 38, dihydrochloride]	7.25
CC(C)(C)c1cccc2ccc(-c3nnc4ccc([C@@H](N5C[C@@H](N)[C@H](O)C5)C(F)(F)F)cn34)nc12 [Example 145, dihydrochloride]	7.52
COCCOc1ccc2ccc(-c3nnc4ccc([C@@H](N5C[C@@H](N)[C@H](OC)C5)C(F)(F)F)cn34)nc2c1	6.66
CCOc1cccc2ccc(-c3nnc4ccc([C@@H](N5CC[C@H](N)C5)C(F)(F)F)cn34)nc12	7.24
CC(C)Oc1cc2nc(-c3nnc4ccc([C@@H](N5CC[C@H](N)C5)C(F)(F)F)cn34)ccc2cc1F [Example 119, hydrochloride]	7.64
CO[C@@H](C)COc1cc2nc(-c3nnc4ccc([C@H](N5CC[C@](C)(N)C5)C(F)(F)F)cn34)ccc2cc1F [Example 322, di-hydrochloride]	7.64
C[C@]1(N)CCN([C@H](c2ccc3nnc(-c4ccc5cccc(C6CC6)c5n4)n3c2)C(F)(F)F)C1 [Example 97, dihydrochloride]	7.19

I: N[C@H]1CCN([C@H](c2ccc3nnc(-c4ccc5cc(F)cc(OCCO)c5n4)n3c2)C(F)(F)F)C1 [Example 254, dihydrochloride]
II: CCOc1cc2nc(-c3nnc4ccc([C@@H](N5CC[C@H](N)C5)C(F)(F)F)cn34)ccc2cc1F [Example 133, hydrochloride]
Could you point out whether the larger pIC50 belongs to I or to II ? // output: label of the selected item
II
(II: 7.11, I: 6.56)

A: CC(C)Oc1cccc2ccc(-c3nnc4ccc([C@@H](N5CC[C@H](NCCO)C5)C(F)(F)F)cn34)nc12 [Example 101, dihydrochloride]
B: CCOc1ccc2ccc(-c3nnc4ccc([C@@H](N5CC[C@H](N)C5)C(F)(F)F)cn34)nc2c1 [Example 255, dihydrochloride]
C: COCC(C)(C)Oc1cccc2ccc(-c3nnc4ccc([C@@H](N5CC[C@H](N)C5)C(F)(F)F)cn34)nc12 [Example 263, formate]
D: CC(C)(C)c1cccc2ccc(-c3nnc4ccc([C@@H](N5C[C@@H](N)[C@@H](O)C5)C(F)(F)F)cn34)nc12 [Example 130, dihydrochloride]
Rank entries according to their pIC50, from the largest number down. Answer by naming the labels in the order asked.
A, B, C, D
(A: 7.40, B: 6.55, C: 6.34, D: 6.12)
